Below, each entry is listed with its recorded activity change, positive = activation.
Assay: qHTS assay to identify small molecule agonists of the estrogen related receptor (ERR) signaling pathway from Tox21 library (AID 1224849); note: % is set by controls: 0 for no effect and ±100 for the full control effect; nearly all actives have a fitted effect of over 15% in size
Conditions: ERR reporter cell line, ONE-Glo luciferase, 18 h; at 92.4 µM (top of the series) unless noted
Active and inactive are the calls of the source. Calls come from the whole dose curve.

Worked set:
{"molecular_string": "CC(C)n1nc(-c2cc3cc(O)ccc3[nH]2)c2c(N)ncnc21", "activity change, positive = activation": "-55.4% [at 42.5 µM] (inactive)"}
{"molecular_string": "O=C1Cc2cc(CCN3CCN(c4nsc5ccccc45)CC3)c(Cl)cc2N1", "activity change, positive = activation": "-35.7% [at 42.5 µM] (inactive)"}
{"molecular_string": "CN(C)c1ccc(C2(c3ccc(N(C)C)cc3)OC(=O)c3cc(N(C)C)ccc32)cc1", "activity change, positive = activation": "-13.6% (inactive)"}
{"molecular_string": "COCCCC/C(=N\\OCCN)c1ccc(C(F)(F)F)cc1", "activity change, positive = activation": "-2.43% [at 42.5 µM] (inactive)"}

Continue with the next molecule.
Request: Which activity change, positive = activation is reported for this molecule? "COc1cc(/C=C/C(=O)O[C@H]2CC[C@]34C[C@]35CC[C@]3(C)[C@@H]([C@H](C)CCC=C(C)C)CC[C@@]3(C)[C@@H]5CC[C@H]4C2(C)C)ccc1O"
Result: -5.43% [at 42.5 µM] (inactive)
